- Test system: KB
- assay.protocol: Cytotoxicity against human KB cells by SRB method
- Assay type: functional
outcome.measure: GI50
A complete answer gives the number followed by the unit.

These solved cases illustrate the format of a correct answer.
CNC(=O)c1cc(Cl)cc(N2CCCc3cc(OC)ccc32)c1    1040 nM
COC(=O)c1ccc(Cl)nc1N(C)c1ccc(OC)cc1    260 nM
COC(=O)c1cc(N(C)c2ccc(OC)cc2)cc(C(F)(F)F)c1    13500 nM
CNC(=O)c1cc(N(C)c2ccc(OC)cc2)cc(C(F)(F)F)c1    12300 nM
COCc1ccc(Cl)cc1N(C)c1ccc(OC)cc1    5240 nM
COc1ccc2c(c1)CCCN2c1cc(Br)cc(C(=O)NC2CC2)c1    160 nM

Proceed to the following item.
Item COC(=O)c1cc(Br)cc(N(C)c2ccc(OC)cc2)c1 was tested on KB; the reported GI50 is 1360 nM

Provenance of the data: ChEMBL document CHEMBL2417522
